biological target: Follistatin-related protein 3 (Homo sapiens); test: FSTL3 binders on small-molecule microarrays, primary screen, biochemical, small-molecule microarray, 635 nm fluorescence (AID 1105); conditions: FSTL3 binding, higher = more signal;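 also: score merges emission near 667 nm and signal to noise per printed spot across three slides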
Some compounds, each annotated with its measured composite z-score.
Field format: numeric only.

Below, 6 compounds whose answers are already recorded.
compound	target-of-assay	composite z-score
COc1ccc([C@H]2OC[C@@H]3CC4(CC=CC4)C(=O)N32)cc1	Follistatin-related protein 3 (Homo sapiens)	1.31
COC(=O)[C@@]1(Cc2ccc(F)cc2)[C@H]2c3cc(C(=O)N(C)C)n(Cc4ccc(S(C)(=O)=O)cc4)c3C[C@H]2CN1C(=O)c1ccccc1	Follistatin-related protein 3 (Homo sapiens)	0.0567
COc1cc2c(cc1O)C(C1CC1)N(Cc1cc3c(cc1Br)OCO3)CC2 (stereo not given)	Follistatin-related protein 3 (Homo sapiens)	-1.35
C=CCNC(=O)[C@@H]1[C@H]2C(=O)O[C@H](c3ccccc3)[C@H](c3ccccc3)N2[C@H](c2ccc(OCCO)cc2)[C@@]12C(=O)Nc1ccc(C#CCCO)cc12	Follistatin-related protein 3 (Homo sapiens)	1.42
COC(=O)c1c(CC[C@@H](CO)NC(=O)N2CCC[C@H]2Cn2cc(-c3ccccn3)nn2)oc(C(C)=O)c1C(=O)OC	Follistatin-related protein 3 (Homo sapiens)	-0.144
[N-]=[N+]=Nc1ccccc1C[C@]1(C(N)=O)N=C(c2ccc(OCCCO)cc2)O[C@H]1c1ccccc1	Follistatin-related protein 3 (Homo sapiens)	-0.255

Respond only with composite z-score recorded for `COc1ccc(C(=O)Nc2ccc(CN3C(=O)[C@@]4(O[C@@H](CC(=O)N5CCC[C@H]5CO)[C@H]([Si](C)(C)c5ccc(OC)cc5)[C@H]4C)c4ccccc43)cc2)cc1`
1.44

Give composite z-score for the following compound: `COc1ccc(CCN2C(=O)[C@@]3(Cc4ccccc42)c2ccccc2C(=O)N(Cc2ccccc2C(F)(F)F)[C@H]3c2ccc(CO)cc2)cc1`
0.425

Note down composite z-score recorded for CN1C2C=C(CCCO)C(C3C(=O)N(C(N)=O)C(=O)C32)C1c1ccc(CN2CCCC2)cc1 (stereo not given)
-0.658

Given the compound `C=C(CCCC)/C(=C/C[C@@H](OC(C)=O)c1ccccc1OCCO)c1cnc2ccccc2c1` , write its reported composite z-score.
0.417

Return reported composite z-score. Input compound: `COCCOC(=O)N1C(=O)[C@@]2(c3cc(C#CCNC(N)=O)ccc31)[C@H](C(=O)NC[C@H](O)c1ccccc1)[C@H]1C(=O)O[C@H](c3ccccc3)[C@H](c3ccccc3)N1[C@@H]2c1ccccc1OCCO`
1.01
